For each record, write down the corresponding TGI.
# Tested on: NCI-H460 lung
# ASSAY_METHOD_TEXT: NCI tumour cell line growth inhibition, 48 h
Numbers only, in µM.

SMILES_STRING	TGI (µM)
CN(CCCl)c1ccc(/C=C/C2=[N+](C)c3ccccc3C2(C)C)cc1	10.6

Quick one: give me TGI for each item below, same order please.
1. Cc1ccc(/C=C/C(=N/NC(=O)N/N=C(/C=C/c2ccc(C)cc2)C(C)(C)CN2CCCCC2)C(C)(C)CN2CCCCC2)cc1
2. C=CCNC1=C2C[C@@H](C)C[C@@H](OC)[C@H](OC(=O)CN)[C@H](C)/C=C(\C)[C@@H](OC(N)=O)[C@H](OC)/C=C\C=C(/C)C(=O)NC(=CC1=O)C2=O

Result:
1: 3.08; 2: 18.3

* * *

For each of the compounds below, state its TGI.
# System: HL-60(TB) leukemia
# ASSAY_METHOD_TEXT: NCI tumour cell line growth inhibition, 48 h

Examples from the recorded data:
COMPOUND	TGI
O=C(NC(Nc1ccc(F)c(Cl)c1)(C(F)(F)F)C(F)(F)F)OCc1ccccc1	40.3 µM
N#CCCN(CCN(C(=O)Nc1ccccc1)c1ccccc1)C(=O)Nc1ccccc1	34.7 µM
COc1ccc(C(=O)COc2cccc(/C=C3\CSc4ccc(C)cc4C3=O)c2)cc1	43.3 µM
OC(c1ccccn1)C1CNc2ccccc21 (stereo unspecified)	> 100 µM
Cc1cc(OCC(=O)N/N=C/C(Br)=C/c2ccccc2)nc(SCC(=O)N/N=C/C(Br)=C/c2ccccc2)n1	> 100 µM
COC12CC(=O)C(C(C)=O)=C(O)C1(C)c1c(OC(C)=O)c(C)c(O)c(C(C)=O)c1O2 (stereo unspecified)	42.5 µM
COc1ccc(C2SC(C)C(=O)N2c2nc(-c3nc(-c4ccc(Cl)cc4)cs3)cs2)cc1 (stereo unspecified)	> 100 µM
NC(=O)NC(=O)c1cccc(NC(=O)CBr)c1	< 0.0207 µM

List reported TGI for each of these compounds:
1. COc1cc(N(CCC#N)CCC#N)ccc1/C(N=Nc1ccccc1)=N/NC(=O)c1cc(Br)ccc1O
2. O=C1C2c3[nH]c4ccccc4c3[C@@H]3CCCCC3C2C(=O)N1c1ccccc1 (stereo partly specified)
3. C=CC(C)CCC(C/C=C(\C)CCC=C(C)C)C(=C)CCCC(C)C (stereo unspecified)
4. N[C@@H]1CCCN(c2c(/C=C3\SC(=O)NC3=O)cccc2-c2ccccc2)C1
5. O=C(O)c1oc(C(=O)O)c(C(=O)O)c1C(=O)O
6. C[C@]12[C@@H]3CC[C@H]1[C@@H](OC(=O)Nc1cc([N+](=O)[O-])cc([N+](=O)[O-])c1)C(=O)N2CC3
7. COC(=O)[C@@H]1C[C@H]([Se]c2ccccc2)CN1C(=O)OCc1ccccc1

Result:
36.6 µM
47.5 µM
> 100 µM
42.6 µM
> 100 µM
> 100 µM
66 µM

The following compounds each have a reported value; give each one's TGI.
1. Cc1ccc2[nH]c3c(ncc4[nH]c5ccccc5c43)c2c1
2. Cn1ncnc1CCc1ccccc1
3. O=C(CC(=O)C1CCOC1=O)C(=O)Nc1ccc(Cl)cc1Cl (stereo unspecified)
4. C[C@H]1C(Oc2ccc(O)cc2)OC2OC3(C)CCC4[C@H](C)CCC1C24OO3 (stereo partly specified)
5. CC(=O)Nc1ccc(C(=O)NN2C(=O)C(Cl)C2c2ccccc2O)cc1 (stereo unspecified)
6. COc1c(O)c2c(=O)cc(OC)c3c4c(OC)cc(=O)c5c(O)c(OC)c6c(c(c1C(C(C)=O)C6C(C)O)c23)c54 (stereo unspecified)

Result:
1: 36.3 µM; 2: > 100 µM; 3: > 100 µM; 4: 24.4 µM; 5: > 100 µM; 6: 0.415 µM
